molecular target: T1, human TMEM106B (human, UniProt Q9NUM4 2-274); assay: FACS HEK+huTMEM, 1.0 ug/ml
T1 construct: Full-length, on transiently transfected HEK293 cells, or natively expressed on HeLa, U251 and A549 cells; also called huTMEM106B; huTMEM
MFI values for the binders below.
# print the numeric value only

Task: Find the recorded MFI belonging to anti-TMEM106B antibody TM-35 (antibody, V domains shown) VH: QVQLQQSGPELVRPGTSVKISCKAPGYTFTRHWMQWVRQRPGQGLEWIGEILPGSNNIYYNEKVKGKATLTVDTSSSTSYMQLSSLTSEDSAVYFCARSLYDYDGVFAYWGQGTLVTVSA VL: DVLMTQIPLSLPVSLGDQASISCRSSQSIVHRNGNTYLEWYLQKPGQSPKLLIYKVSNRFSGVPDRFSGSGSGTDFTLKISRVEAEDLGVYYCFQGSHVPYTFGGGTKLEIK and report it.
Output: 55400

Task: Find the recorded MFI belonging to anti-TMEM106B antibody TM-24 (antibody, V domains shown, mouse IgG from hybridoma) VH: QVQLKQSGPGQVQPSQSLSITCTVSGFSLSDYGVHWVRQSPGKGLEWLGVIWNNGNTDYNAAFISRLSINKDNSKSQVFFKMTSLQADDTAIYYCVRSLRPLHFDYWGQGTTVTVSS VL: DIVMTQSPSSLTMSVGQKVTMNCKSSQSLLNSNNQQNYLAWYQQKPGQSPKLLVYFASIRESGVPDRFIGSGSGTDFTLTINSVQAEDLADYFCQQHYSTPFTFGSGTKLEIR and report it.
Output: 64500

Task: Find the recorded MFI belonging to anti-TMEM106B antibody TM-22 (antibody, V domains shown) VH: QVQLQQSGPELVKPGASVKISCKASGYRFTSYYIHWVKQRPGQGLEWIGWIYPGNGITNYNEKFKGKATLTADTSSSTAYMQLSSLTSEDSAVYYCASPYYGIRNCYFDVWGTGTTVTVSS VL: DVLMTQTPLSLPVSLGDHASISCRSGQSIVHSNGNTYLEWYLQKPGQSPKLLIYKVSNRFSGVPDRFSGSGSGTDFTLKISRVEAEDLGIYYCFQGSHVPWTFGGGTKLEIK and report it.
Output: 2100
